Provide the reported CC50 at 72 h of each item.
ASSAY_OVERVIEW: Cell viability, MTT
Assay type: cell-based
RUN_CONDITIONS: African green monkey, Vero cells
The response must be a number in µM with no trailing unit.

get_value(item= COc1cc2oc(-c3ccc(O)c(O)c3)cc(=O)c2c(O)c1O [Compound 8, Pedalitin] , readout=CC50 at 72 h) returns 83.7

get_value(item= O=c1c(O)c(-c2ccc(O)c(O)c2)oc2cc(O)cc(O)c12 [Compound 9, Quercetin] , readout=CC50 at 72 h) returns 36

Recorded values, source paper PMC9788182.
